# target.entity: NLRP3 inflammasome (Mus musculus)
# Sequence (Q8R4B8 whole entry): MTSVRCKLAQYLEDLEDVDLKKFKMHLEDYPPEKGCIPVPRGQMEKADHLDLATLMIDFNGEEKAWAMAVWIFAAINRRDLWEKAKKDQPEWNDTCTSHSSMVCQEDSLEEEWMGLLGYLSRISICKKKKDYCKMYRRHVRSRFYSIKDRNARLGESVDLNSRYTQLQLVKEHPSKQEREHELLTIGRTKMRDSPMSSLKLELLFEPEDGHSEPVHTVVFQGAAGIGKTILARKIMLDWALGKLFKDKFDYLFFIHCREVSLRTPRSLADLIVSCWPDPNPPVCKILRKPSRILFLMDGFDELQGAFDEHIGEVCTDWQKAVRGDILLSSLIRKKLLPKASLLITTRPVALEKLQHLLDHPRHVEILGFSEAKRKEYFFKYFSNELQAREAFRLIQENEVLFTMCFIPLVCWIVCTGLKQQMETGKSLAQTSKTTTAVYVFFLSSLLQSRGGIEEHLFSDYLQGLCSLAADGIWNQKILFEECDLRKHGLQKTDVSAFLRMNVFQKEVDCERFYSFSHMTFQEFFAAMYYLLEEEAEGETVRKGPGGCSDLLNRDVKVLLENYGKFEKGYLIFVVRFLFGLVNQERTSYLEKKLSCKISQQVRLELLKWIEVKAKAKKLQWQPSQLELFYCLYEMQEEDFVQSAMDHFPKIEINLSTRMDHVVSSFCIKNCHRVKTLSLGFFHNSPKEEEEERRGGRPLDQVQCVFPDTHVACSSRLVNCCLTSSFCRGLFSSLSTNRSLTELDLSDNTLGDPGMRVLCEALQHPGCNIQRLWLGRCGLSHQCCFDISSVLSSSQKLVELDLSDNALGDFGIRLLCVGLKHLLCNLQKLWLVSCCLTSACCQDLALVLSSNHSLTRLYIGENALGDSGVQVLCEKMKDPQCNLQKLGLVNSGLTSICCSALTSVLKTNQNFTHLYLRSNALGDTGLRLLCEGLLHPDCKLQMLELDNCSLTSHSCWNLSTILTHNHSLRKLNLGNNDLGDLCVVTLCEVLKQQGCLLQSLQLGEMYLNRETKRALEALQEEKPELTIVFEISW
# assay.comment: Inhibition of IL-1β release, NLRP3 inflammasome activation assay in BMDM
# Format: cell-based
# assay.setup: select compounds of the first aspect (Table 10), read-out: BMDM IC50 vs NLRP3
pIC50: −log10 of the molar value.
Response key: T means pIC50 >= 7; F means pIC50 < 7.

Example results:
compound: COc1ccc(Cl)cc1C(=O)NCCc1ccc(S(=O)(=O)NC(=O)Nc2c3c(cc4c2CCC4)CCC3)cc1 [drawing 358]
category.label: F
//
compound: CC(=O)c1ccc(S(=O)(=O)NC(=O)Nc2c3c(cc4c2CCC4)CCC3)cc1 [drawing 363]
category.label: T
//
compound: Nc1ccc(S(=O)(=O)NC(=O)Nc2c3c(cc4c2CCC4)CCC3)cc1 [drawing 365]
category.label: T
//
compound: O=C(Nc1c2c(cc3c1CCC3)CCC2)NS(=O)(=O)c1ccc([N+](=O)[O-])cc1 [drawing 368]
category.label: T
//
compound: Cc1cnc(C(=O)NCCc2ccc(S(=O)(=O)NC(=O)Nc3c4c(cc5c3CCC5)CCC4)cc2)cn1 [drawing 359]
category.label: F
//
compound: COc1ccc2c(c1)C(=O)N(CCc1ccc(S(=O)(=O)NC(=O)Nc3c4c(cc5c3CCC5)CCC4)cc1)C(=O)C2(C)C [drawing 361]
category.label: F

Turning to the following compound.
[Q] # bool: pIC50 of O=C(Nc1c2c(cc3c1CCC3)CCC2)NS(=O)(=O)c1ccc(Cl)cc1 [drawing 366] >= 7
[A] T
